# activation at 0.0005 % values compiled below
# ASSAYED_SYSTEM: mouse TREK-1 (mTREK-1t) (Mus musculus)
# Construct: (mTREK-1t) by Capital Biosciences (Rockville, Md.)
# Sequence (P97438 with tags, fused parts or gaps limits assumed): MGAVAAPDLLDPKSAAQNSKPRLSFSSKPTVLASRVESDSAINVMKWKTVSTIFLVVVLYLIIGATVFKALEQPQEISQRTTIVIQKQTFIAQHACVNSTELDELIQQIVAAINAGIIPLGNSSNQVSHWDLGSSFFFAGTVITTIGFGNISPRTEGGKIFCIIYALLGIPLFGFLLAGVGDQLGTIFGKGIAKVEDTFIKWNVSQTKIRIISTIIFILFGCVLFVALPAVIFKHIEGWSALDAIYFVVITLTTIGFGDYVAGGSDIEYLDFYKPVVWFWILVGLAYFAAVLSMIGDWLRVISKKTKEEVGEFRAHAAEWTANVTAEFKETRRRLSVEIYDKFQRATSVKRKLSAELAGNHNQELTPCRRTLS
# TEST_PROTOCOL: FLIPR membrane potential assay in HEK-293 cells stably transfected with mTREK-1t
# Assay type: cell-based
# EXPERIMENTAL_CONDITIONS: HEK293, Sample Conc. 0.0005%; read-out: Activity Level (percentage of activity relative to 100% with 50 mM potassium nitrate)
Where a name gives a salt, the structure may show the parent alone.
Value expressed in %; do not type the unit.

The following molecules have reported results that may help.
CCOC(=O)CC(O)(CC(=O)OCC)C(=O)OCC [Triethyl Citrate] = 4.06
CCCCOC(=O)CC(CC(=O)OCCCC)(OC(C)=O)C(=O)OCCCC [Acetyl Tributyl Citrate] = 2.69
CCCOC(=O)CCCCC(=O)OCCC [Dipropyl Adipate] = 0

Consider now this further molecule.
Which activation at 0.0005 % value belongs to CC(C)OC(=O)CCCCC(=O)OC(C)C [Diisopropyl Adipate] ?
1.31
